The reported numbers originate from the supplement of paper PMC12645437.

Molecular target: T1, CRBN, Q96SW2;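 further: pooled lentiviral library of zinc finger degron-EGFP fusions in mCherry-positive Jurkat cells, FACS-sorted after compound exposure, with degron abundance counted by next-generation sequencing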
T1 chain: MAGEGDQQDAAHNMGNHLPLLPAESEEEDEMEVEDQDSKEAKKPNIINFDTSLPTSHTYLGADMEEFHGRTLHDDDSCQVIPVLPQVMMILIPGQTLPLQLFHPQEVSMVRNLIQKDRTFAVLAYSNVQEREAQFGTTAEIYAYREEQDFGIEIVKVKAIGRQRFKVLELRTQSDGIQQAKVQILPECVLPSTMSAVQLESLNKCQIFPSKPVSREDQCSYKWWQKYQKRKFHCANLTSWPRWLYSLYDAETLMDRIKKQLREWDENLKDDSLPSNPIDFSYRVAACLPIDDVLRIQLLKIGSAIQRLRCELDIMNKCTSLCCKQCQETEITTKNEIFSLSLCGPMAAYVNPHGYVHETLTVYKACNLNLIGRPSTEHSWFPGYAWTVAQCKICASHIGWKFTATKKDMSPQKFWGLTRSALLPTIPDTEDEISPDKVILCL
Experiment: log2 fold change of degron read counts, EGFP-low vs EGFP+ sorted cells (limma voom), compound-induced degradation; higher = more compound-induced degradation of the degron-EGFP fusion; degrons are variants of IKZF1/3 zinc finger 2; compound dose not given here
Settings: Jurkat; 18 h; compound: compound 33 (diphenyl IMiD analogue)
Whole data set: some 8,300 sequences, median “log2 fold change of degron read counts, EGFP-low vs EGFP+ sorted cells (limma voom), compound-induced degradation” near -1.1, cut for the highest 2% near 3.2. Only a selection was taken, and the highest values are over-represented in it overall.
# label = Y if log2 fold change of degron read counts >= 1 else N

# check: log2 fold change of degron read counts of FCCPVCGASFTQKGNLLRHIKL [46F_47C_49P_50V_52G_53A_54S_55F_67L_, Q9UKT9] is greater than or equal to 1
Y

Quick check: does FICPVCGASFTQKGNLLRHIKL [46F_47I_49P_50V_52G_53A_54S_55F_67L_, Q9UKT9] have log2 fold change of degron read counts greater than or equal to 1?
Y

Please indicate if the recorded log2 fold change of degron read counts for FYCPVCGASFTQKGNLLRHIKL [46F_47Y_49P_50V_52G_53A_54S_55F_67L_, Q9UKT9] meets or exceeds 1.
Y

Please check the record FHCPVCGASFTQKGNLLRHIKL [46F_47H_49P_50V_52G_53A_54S_55F_67L_, Q9UKT9] and state if its log2 fold change of degron read counts is at or above 1.
Y

Reported log2 fold change of degron read counts reaches at least 1 for FWCDVCGASFTQKGNLLRHIKL [46F_47W_49D_50V_52G_53A_54S_55F_67L_, Q9UKT9] ?
Y

Given the entry FSCDQCGAMFTQKGNLLRHIKL [46F_47S_49D_50Q_52G_53A_54M_55F_67L_, Q9UKT9] , answer whether its log2 fold change of degron read counts meets or surpasses 1.
N

Reported log2 fold change of degron read counts at or above 1? FVCDVCGASFTQKGNLLRHIKL [46F_47V_49D_50V_52G_53A_54S_55F_67L_, Q9UKT9]
N
